- Test system: Rattus norvegicus
- assayComment: Base line of mean aortic blood pressure in the conscious Renal hypertensive rat was determined after oral administration of 30 mg/kg
- Format: functional, Artery
metric: Mean aortic blood pressure
# answer = value followed by unit

Give recorded Mean aortic blood pressure. `C[C@@H](CC(=O)[C@H](Cc1ccccc1)NC(=O)c1ccccc1)C(=O)N1CCC[C@H]1C(=O)O`
189 mmHg

Specify measured Mean aortic blood pressure for `C[C@H](CC(=O)[C@H](Cc1ccccc1)NC(=O)c1ccccc1)C(=O)N1CCC[C@H]1C(=O)O` .
197 mmHg

Answer with reported Mean aortic blood pressure of `C[C@@H](CC(=O)[C@@H](Cc1ccccc1)NC(=O)c1ccccc1)C(=O)N1CCC[C@H]1C(=O)O`
183 mmHg

Quickly give me recorded Mean aortic blood pressure for CCCCOC(=O)NC(Cc1ccccc1)C(=O)CC(C)C(=O)N1CCCC1C(=O)O (centres undefined)
188 mmHg
